B1: glmS ribozyme (parent)
chain: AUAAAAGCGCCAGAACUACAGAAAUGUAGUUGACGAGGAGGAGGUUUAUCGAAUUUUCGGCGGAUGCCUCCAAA

Variants of: B1
experimental.details: self-cleavage kobs at 160 uM GlcN6P; higher = faster cleavage; RNA array
measurement.parameters: with glucosamine-6-phosphate
Fewer inactive variants are shown than the library holds.
Output TRUE for self-cleavage kobs at 160 uM GlcN6P not less than 0.0004 s⁻¹; output FALSE otherwise.

Task: Item AUAAAAGCACCAGAACUACAGAAAUGUAGUCGACGAGGAGGAGGUUUAUCUAAUUUUCUGCGGAUGCGUCCAAA [G9A U31C G51U G59U C68G] with self-cleavage kobs at 160 uM GlcN6P of 0.0004 s⁻¹ or above?
Output: FALSE

Task: Try AUAAAAGCGCCCGAACUACAGAAAUGUAGUUGACGAGGUGGAGGUUUAUCGAAUUUUCGGCGGAUGCCUCCAAA [A12C A39U] next.
Output: TRUE

Task: Same read-out for AUAAAAGCGCCAGAACUACAGAAAUGUAGUUAACGAGGAGGAGGUUUAUCGAAUUUUCGGCGGAUGUCUCGAAA [G32A C67U C71G] ?
Output: FALSE

Task: Would you kindly repeat that for AUAAAAGCGCCAGAACUACAGAAAUGUAGUUGACGAGGAGGAUGUUUAUCGAAUUUUCGGCGGAUGCUUCCAAA [G43U C68U] ?
Output: TRUE

Task: Entry to check: AUAAAAGCGCCAGAACUACAGAAAUGUAGUUGACGAGGAGGAGUUUUAUCGAAUUUUCAACGGAUGCCUCCAAA [G44U G59A G60A]
Output: FALSE

Task: Field entry: AUAAAAGCGCCAGAACUACAGAAAUGUAGUUGACGUGGAGAAGGUUUAUCGAAGUUUCGGCGGAUGCCUCCAAA [A36U G41A U54G]
Output: FALSE

Task: What do you get for AUAAAAGCGCCAGAACUACAGAAAUGUAGUUGACGAGGAGGAGGUUUAUCGAACUUUCGGCGGAUGCCUUCAAA [U54C C70U] ?
Output: TRUE

Task: How about this variant: AUAAACGCGCCAGAACUACAGAAAUGUAGUUGACGAGGAGGAGGUAUAACGAAUUUUCGGCGGAUGCCUCCAAA [A6C U46A U49A]
Output: FALSE

Task: // same read-out, input: AUAAAAGAGCCAGAACUACAGAAAUGUAGUUGACGAGGAGGAGGUUUAUGGAAUUUUCGGCGGAUGCCUCCAAA [C8A C50G]
Output: FALSE

Task: Subsequent entry: AUAAAAGCGCCAGAACUACAGAAAUGUAGUUGACGAGGAGGAGGUUUAUCGUAUUUUCGGCGGAGGCCUCCAAA [A52U U65G]
Output: FALSE

Task: Please do the same for AUAAAAGCGCCAGAACUACAGAAAUGUAGUUGACGAGGAGGAGGUUUAUCGAGUUUUCGACGGAUCCCUCCAAA [A53G G60A G66C] as well.
Output: FALSE

Task: Next record, please: AUAAAAGUGCCAGAACUACAGAAAUGUAGGUGACGAGGAGGAGGUUUAUCGAAUUUUCGGCGGAUGCCUCCAAA [C8U U30G]
Output: FALSE

Task: Same again, this time with AUAAAAGCGCCUGAACUACAGAAAUGUAAUUGACGAGGAGGAGGUUUAUCGAGUUUUCGGCAGAUGCCUCCAAA [A12U G29A A53G G62A]
Output: FALSE

Task: Note, next up: AUAAAAGCGCCAGAACUACAGAAAUGUAGUUGACGAGGAGCAGGUUUAUCGAAUUUUAGGCGGAUGCCUCCAAA [G41C C58A]
Output: FALSE

Task: Entry to check: AUAAAAGCGCCAGAACUACAGAAAUGUAGUUGACGAGCAGGAGGUUUAUCGAAUUUUCGGCGGACGCCUCCAAA [G38C U65C]
Output: FALSE

Task: # repeat for AUAAAAGCGCCAGAACUACAGAAAUGUAGUUGACGAGGAGGAAGUUUAUCGAAUUUUCGGGGGAUGUCUUCAAA [G43A C61G C67U C70U]
Output: FALSE

Task: And AUAAAAGCGCCAGAACUACAGAAAUGUAGUUGACGAGGAGGAGGUUUAUCGAAUUAUCGGCGGAUGCCCCCAAA [U56A U69C] ?
Output: FALSE

Task: Record: AUAAAAGCGCCAGAACUACAGAAAUGUAGUUGACGAGGAGGAGGUUUAUCGAAUCUUCGGCGGAUCCCUCCAAA [U55C G66C]
Output: FALSE

Task: Subsequent entry: AUAAAAGCGCCAGAACUACAGAAAUGUAGUUGACGAGGAGGACGUUUAUCGAAUUUUCGGCGGAUGCGUCCAAA [G43C C68G]
Output: TRUE

Task: Another: AUAAAAGCGCCAGAACUACAGAAAUGUAGUUGACGAGGACGGGGUUUAUCGAAUUUUCGGCGGAUGCCUCCAAA [G40C A42G]
Output: TRUE
